src = patent US20220402995A1

biological target: T1, VLP2 (virus-like particles of AAV2) (AAV2, UniProt P03135 1-735; P03135 1-598; P03135 1-533); experiment: ELISA on VLP2; A450 after pH 3.0 51.5°C 15 min / 25°C
T1 construct: Empty AAV2 capsid; background says about 60 protein molecules, VP1:VP2:VP3 = 1:1:10; Immobilised on the ELISA plate
T1 sequence (P03135 whole entry, chain 1 of 3): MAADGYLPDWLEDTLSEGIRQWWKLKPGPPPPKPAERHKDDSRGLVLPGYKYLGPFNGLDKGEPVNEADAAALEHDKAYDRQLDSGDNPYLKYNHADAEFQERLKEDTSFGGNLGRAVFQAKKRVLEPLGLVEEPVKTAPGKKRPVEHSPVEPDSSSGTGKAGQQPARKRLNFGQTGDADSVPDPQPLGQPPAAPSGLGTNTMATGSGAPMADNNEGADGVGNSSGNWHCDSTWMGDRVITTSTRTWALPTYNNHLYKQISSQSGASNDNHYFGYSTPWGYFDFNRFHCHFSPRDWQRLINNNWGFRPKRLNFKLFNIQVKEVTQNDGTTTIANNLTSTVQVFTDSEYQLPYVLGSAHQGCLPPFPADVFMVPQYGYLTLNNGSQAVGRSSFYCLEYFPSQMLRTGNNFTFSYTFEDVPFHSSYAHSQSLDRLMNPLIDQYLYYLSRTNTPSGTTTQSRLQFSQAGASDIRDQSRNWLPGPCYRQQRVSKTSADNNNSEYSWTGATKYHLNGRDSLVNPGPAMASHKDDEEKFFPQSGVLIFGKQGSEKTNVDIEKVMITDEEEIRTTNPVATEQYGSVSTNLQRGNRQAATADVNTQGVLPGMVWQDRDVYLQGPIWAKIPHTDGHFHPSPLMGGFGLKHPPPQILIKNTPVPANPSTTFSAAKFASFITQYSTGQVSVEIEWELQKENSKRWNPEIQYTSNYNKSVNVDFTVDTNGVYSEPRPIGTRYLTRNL
T1 sequence (P03135 139-735, tags left off, chain 2 of 3): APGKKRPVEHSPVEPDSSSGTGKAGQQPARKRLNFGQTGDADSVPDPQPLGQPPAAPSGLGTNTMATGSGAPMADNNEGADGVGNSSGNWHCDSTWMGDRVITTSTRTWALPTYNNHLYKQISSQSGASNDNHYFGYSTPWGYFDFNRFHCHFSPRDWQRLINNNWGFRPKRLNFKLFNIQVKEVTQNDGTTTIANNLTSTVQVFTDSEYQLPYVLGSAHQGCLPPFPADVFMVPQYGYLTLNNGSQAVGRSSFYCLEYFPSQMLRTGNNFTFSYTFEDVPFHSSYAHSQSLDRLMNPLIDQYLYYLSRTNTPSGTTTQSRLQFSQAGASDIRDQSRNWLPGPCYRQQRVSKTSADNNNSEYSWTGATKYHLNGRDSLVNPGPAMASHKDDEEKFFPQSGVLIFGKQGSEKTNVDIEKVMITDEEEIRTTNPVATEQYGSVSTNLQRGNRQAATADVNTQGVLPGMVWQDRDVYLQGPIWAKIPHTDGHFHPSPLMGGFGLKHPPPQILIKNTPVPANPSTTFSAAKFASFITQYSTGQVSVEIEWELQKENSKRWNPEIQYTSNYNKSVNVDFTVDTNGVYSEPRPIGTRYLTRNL
T1 sequence (P03135 203-735, chain 3 of 3): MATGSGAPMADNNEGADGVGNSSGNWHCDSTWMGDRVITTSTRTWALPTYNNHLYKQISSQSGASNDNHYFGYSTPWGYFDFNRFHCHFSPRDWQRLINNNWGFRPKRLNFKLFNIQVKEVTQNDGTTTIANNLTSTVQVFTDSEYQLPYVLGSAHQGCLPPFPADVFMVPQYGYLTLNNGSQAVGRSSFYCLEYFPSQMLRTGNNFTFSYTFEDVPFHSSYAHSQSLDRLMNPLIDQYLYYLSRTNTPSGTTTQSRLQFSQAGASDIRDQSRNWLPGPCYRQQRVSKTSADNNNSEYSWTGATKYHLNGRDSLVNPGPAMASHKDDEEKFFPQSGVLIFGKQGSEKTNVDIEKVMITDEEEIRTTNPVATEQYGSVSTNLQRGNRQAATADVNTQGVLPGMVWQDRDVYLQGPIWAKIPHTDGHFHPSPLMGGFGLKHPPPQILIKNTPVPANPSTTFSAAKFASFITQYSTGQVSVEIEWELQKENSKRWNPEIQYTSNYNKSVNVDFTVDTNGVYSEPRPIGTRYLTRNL
Measurement Label: Residual activity after heat treatment [%] (%)

- Binder: "AVR5e (Tyr342Cys, Gly390Ser, Lys399Glu, Ser476Arg, Asn487Asp) (receptor) MGSAGESVQITLPKNEVQLNAYVLQEPPKGETCTYDWQLITHPRDYSGEMEGKHSQILKLSKLTPGLYEFKVIVEGQNAHSEGYVNVTVEPEPRKNRPPIAIVSPQFQEISLPTTSTVIDGSQSTDDDKIVQYHWEELKGPLREEKISEDTAILKLSKLVPGNYTFRLTVVDSDGATDSTTANLTVNKAVDHHHHHH"
  Quantity Unit: "%"
  Readout Value: 77
- Binder: "AVR5b (Ile319Phe, Lys323Glu, Tyr342Cys, Gly390Ser, Ser476Arg) (receptor) MGSAGESVQFTLPENEVQLNAYVLQEPPKGETCTYDWQLITHPRDYSGEMEGKHSQILKLSKLTPGLYEFKVIVEGQNAHSEGYVNVTVKPEPRKNRPPIAIVSPQFQEISLPTTSTVIDGSQSTDDDKIVQYHWEELKGPLREEKISEDTAILKLSKLVPGNYTFRLTVVDSDGATNSTTANLTVNKAVDHHHHHH"
  Quantity Unit: "%"
  Readout Value: 87
